Assay: Stability in pH 3 buffer assessed as half life at 37 degC by 31P NMR analysis
Type: physicochemical
Test readout: half-life (min)

INSERT INTO assay_data (query_smiles, value_qualifier, reported_value) VALUES
  ('O=C([O-])CCCOP(=O)([O-])N[C@@H](Cc1ccc(O)c(O)c1)C(=O)[O-].[K+].[K+].[K+]', '=', 72),
  ('CCOC(=O)[C@H](COP(=O)([O-])N[C@@H](Cc1ccc(O)c(O)c1)C(=O)[O-])NC(C)=O.[K+].[K+]', '=', 162),
  ('CCOC(=O)[C@@H](NC(C)=O)[C@@H](C)OP(=O)([O-])N[C@@H](Cc1ccc(O)c(O)c1)C(=O)[O-].[K+].[K+]', '=', 330),
  ('CC(=O)N[C@@H](COP(=O)([O-])N[C@@H](Cc1ccc(O)c(O)c1)C(=O)[O-])C(=O)[O-].[K+].[K+].[K+]', '<', 5),
  ('CC(=O)N[C@H](C(=O)[O-])[C@@H](C)OP(=O)([O-])N[C@@H](Cc1ccc(O)c(O)c1)C(=O)[O-].[K+].[K+].[K+]', '<', 5);
